target: hα2C receptor (Homo sapiens); construct: expressed in transfected cells; host or cells: CHO cells, stably transfected; membrane preparation; assay: Radioligand binding experiment for α2C-adrenoceptor ([3H]raulwolscine, CHO cell membranes); conditions: [3H]raulwolscine binding, read-out: h-α2C pIC50 (converted)
Listing of entries alongside the reported IC50.
Give a bare numeral; the unit nM is implied.

Compound structure string | Measurement unit | Recorded measurement
C/C(=C\c1ccccc1)CN1CCC(Nc2nccn(-c3cccc(N4CCOCC4)c3)c2=O)CC1 | nM | 3.16
C/C(=C\c1ccccc1)CN1CCC(Nc2nccn(CCCN(C)Cc3ccccc3)c2=O)CC1 | nM | 1
C/C(=C\c1ccccc1)CN1CCC(Nc2nccn(CC(=O)N(C)CCN(C)C)c2=O)CC1 | nM | 1.58

Now turn to the next compound.
Input line: Name the recorded IC50 for C/C(=C\c1ccccc1)CN1CCC(Nc2nccn(Cc3ccncc3)c2=O)CC1 .
Output line: 39.8

====

Target: hα2C receptor (Homo sapiens)
Construct: expressed in transfected cells; host or cells: CHO cells, stably transfected; membrane preparation
Sequence (P18825 1-462): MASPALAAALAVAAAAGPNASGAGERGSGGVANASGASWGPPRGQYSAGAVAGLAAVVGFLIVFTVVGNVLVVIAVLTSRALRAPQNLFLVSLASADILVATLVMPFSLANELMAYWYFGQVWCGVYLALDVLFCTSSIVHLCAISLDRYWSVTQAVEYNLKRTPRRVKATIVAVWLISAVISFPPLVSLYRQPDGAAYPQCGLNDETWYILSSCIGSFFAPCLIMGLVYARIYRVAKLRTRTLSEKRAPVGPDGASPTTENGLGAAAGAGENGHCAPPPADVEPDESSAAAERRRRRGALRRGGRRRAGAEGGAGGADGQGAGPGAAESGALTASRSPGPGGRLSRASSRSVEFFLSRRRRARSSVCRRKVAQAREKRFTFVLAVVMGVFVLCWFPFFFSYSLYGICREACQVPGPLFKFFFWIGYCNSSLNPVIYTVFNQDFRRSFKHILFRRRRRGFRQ
Assay: Radioligand binding experiment for α2C-adrenoceptor ([3H]raulwolscine, CHO cell membranes)
Conditions: [3H]raulwolscine binding, read-out: h-α2C pIC50 (converted)
Value kind: IC50 (nM)
Hi! Could you send only the number? It should be in nM, unit omitted.

Compound | IC50, nM
C/C(=C\c1ccccc1)CN1CCC(Nc2nccn(-c3cccc(N)c3)c2=O)CC1 | 5.01
C/C(=C\c1ccccc1)CN1CCC(Nc2nccn(CCN3CCOCC3)c2=O)CC1 [2-40] | 25.1
CCOC(=O)CCCCn1ccnc(NC2CCN(C/C=C/c3ccccc3)CC2)c1=O | 158
C/C(=C\c1ccccc1)CN1CCC(Nc2nccn(-c3cccc(NCc4ccccc4)c3)c2=O)CC1 | 3.98
C/C(=C\c1ccccc1)CN1CCN(c2nccn(CC(=O)c3ccccc3)c2=O)CC1 | 50.1

Consider the record given below.
Input line: Would you mind telling me what IC50 value was observed for CC(=O)Nc1ccc(S(=O)(=O)NCc2ccc(Cn3ccnc(NC4CCN(C/C(C)=C/c5ccccc5)CC4)c3=O)cc2)cc1 ?
Output line: 20

====

Target: hα2A receptor (Homo sapiens)
Construct: expressed in transfected cells; host or cells: CHO cells, stably transfected; membrane preparation
Sequence (P08913 whole entry): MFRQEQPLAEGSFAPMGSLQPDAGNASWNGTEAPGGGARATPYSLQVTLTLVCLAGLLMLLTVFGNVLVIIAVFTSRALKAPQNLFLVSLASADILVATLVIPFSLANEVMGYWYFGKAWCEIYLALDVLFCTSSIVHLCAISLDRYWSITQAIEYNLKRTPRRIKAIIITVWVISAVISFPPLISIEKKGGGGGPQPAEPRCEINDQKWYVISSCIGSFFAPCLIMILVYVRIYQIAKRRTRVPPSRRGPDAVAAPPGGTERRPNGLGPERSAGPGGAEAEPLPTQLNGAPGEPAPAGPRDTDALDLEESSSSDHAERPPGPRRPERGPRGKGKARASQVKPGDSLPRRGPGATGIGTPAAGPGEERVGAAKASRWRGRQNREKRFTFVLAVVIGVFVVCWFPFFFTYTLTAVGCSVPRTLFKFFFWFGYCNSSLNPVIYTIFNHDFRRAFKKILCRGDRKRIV
Test: Radioligand binding experiment for α2A-adrenoceptor ([3H]raulwolscine, CHO cell membranes)
Settings: [3H]raulwolscine binding, read-out: h-α2A pIC50 (converted)
Procedure: The interaction of a compound of Formula (I) with α2-adrenoceptor receptors was assessed in in vitro radioligand binding experiments. […] When equilibrium of binding is reached, the receptor bound radioactivity is separated from the non-bound radioactivity, and the receptor- or transporter-bound activity is counted. The interaction of the test compounds with the receptor is assessed in competition binding experiments. […]
One threshold, 100 nM, splits the recorded IC50 values: lower ones are 1.0, equal or higher ones are 0.0.

Compound | Group
C/C(=C\c1ccccc1)CN1CCC(Nc2nccn(Cc3cccc(Cl)c3)c2=O)CC1 [5-18] | 0.0

Input line: Say whether its IC50 is strictly beneath 100 nM. Entry: CC(=O)Nc1ccc(S(=O)(=O)NCc2ccc(Cn3ccnc(NC4CCN(C/C(C)=C/c5ccccc5)CC4)c3=O)cc2)cc1 [1-164]
Output line: 0.0

Input line: Does the reported IC50 of the following compound sit strictly below 100 nM? C/C(=C\c1ccccc1)CN1CCC(Nc2nccn(-c3ccc(C(=O)N4CCC(N(C)C)C4)cc3)c2=O)CC1 (stereo not drawn) [2-2]
Output line: 1.0

Input line: # TODO verify IC50 < 100 nM strictly for this compound: CCOC(=O)N1CCN(Cc2ccc(-n3ccnc(NC4CCN(C/C(C)=C/c5ccccc5)CC4)c3=O)cc2)CC1 [2-37]
Output line: 0.0

Input line: Please check: IC50 for C/C(=C\c1ccccc1)CN1CCC(Nc2nccn(Cc3ccccc3C)c2=O)CC1 [5-10] , strictly under 100 nM or not?
Output line: 1.0

Input line: Is 100 nM strictly greater than the compound's reported IC50? compound: C/C(=C\c1ccccc1)CN1CCC(Nc2nccn(Cc3ccc(CNC(=O)c4ccncc4)cc3)c2=O)CC1 [1-154]
Output line: 0.0

Input line: Record O=C1c2ccccc2C(=O)N1CCCn1ccnc(NC2CCN(C/C=C/c3ccccc3)CC2)c1=O [16-8] : is its IC50 strictly below 100 nM?
Output line: 0.0

Values compiled from patent US20090111801A1.
